- Experimental target: T1, human APRIL (5860-AP-010/CF, R&D Systems) (human, UniProt O75888 115-250, limits assumed)
- T1 construct: Bought protein
- T1 sequence (looked up): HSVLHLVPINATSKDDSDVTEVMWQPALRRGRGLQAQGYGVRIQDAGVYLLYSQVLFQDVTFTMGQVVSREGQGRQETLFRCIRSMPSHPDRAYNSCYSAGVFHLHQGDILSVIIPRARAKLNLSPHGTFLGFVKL
- Measurement description: SPR (Biacore), sample captured on Protein A, antigen flowed, 1:1 fit
Below, each entry is listed alongside its reported Kd.
I only need the number, in nM, no unit after it.

• TACI-9 Fc (Fc fusion, TACI positions 68-108, no mutation, fused directly to Fc; two identical polypeptides) SLSCRKEQGKFYDHLLRDCISCASICGQHPKQCAYFCENKLDKTHTCPPCPAPEAEGAPSVFLFPPKPKDTLMISRTPEVTCVVVDVSHEDPEVKFNWYVDGVEVHNAKTKPREEQYNSTYRVVSVLTVLHQDWLNGKEYKCKVSNKALPSSIEKTISKAKGQPREPQVYTLPPSRDELTKNQVSLTCLVKGFYPSDIAVEWESNGQPENNYKTTPPVLDSDGSFFLYSKLTVDKSRWQQGNVFSCSVMHEALHNHYTQKSLSLSPGK = 0.018
• RCT-18 (Telitacicept) (Fc fusion, Positive control; TACI part is positions 13-118 of the extracellular region of human TACI, the rest is Fc) SRVDQEERFPQGLWTGVAMRSCPEEQYWDPLLGTCMSCKTICNHQSQRTCAAFCRSLSCRKEQGKFYDHLLRDCISCASICGQHPKQCAYFCENKLRSPVNLPPELDKTHTCPPCPAPEAEGAPSVFLFPPKPKDTLMISRTPEVTCVVVDVSHEDPEVKFNWYVDGVEVHNAKTKPREEQYNSTYRVVSVLTVLHQDWLNGKEYKCKVSNKALPSSIEKTISKAKGQPREPQVYTLPPSRDELTKNQVSLTCLVKGFYPSDIAVEWESNGQPENNYKTTPPVLDSDGSFFLYSKLTVDKSRWQQGNVFSCSVMHEALHNHYTQKSLSLSPGK = 0.0281

Proceeding to the next binder to report its Kd.
Asked: Suppose we examine the binder TACI-9-15Fc (Fc fusion, two identical polypeptides) STSCREEQGEFYDHLLRDCISCASICGQHPKQCAAFCENKLDKTHTCPPCPAPEAEGAPSVFLFPPKPKDTLMISRTPEVTCVVVDVSHEDPEVKFNWYVDGVEVHNAKTKPREEQYNSTYRVVSVLTVLHQDWLNGKEYKCKVSNKALPSSIEKTISKAKGQPREPQVYTLPPSRDELTKNQVSLTCLVKGFYPSDIAVEWESNGQPENNYKTTPPVLDSDGSFFLYSKLTVDKSRWQQGNVFSCSVMHEALHNHYTQKSLSLSPGK ; what Kd value has been reported?
Given back: 0.0125
